Molecular target: LXRα (Homo sapiens)
Construct: expressed in transfected cells; host or cells: 293 cells
Sequence (Q13133 209-447 limits assumed): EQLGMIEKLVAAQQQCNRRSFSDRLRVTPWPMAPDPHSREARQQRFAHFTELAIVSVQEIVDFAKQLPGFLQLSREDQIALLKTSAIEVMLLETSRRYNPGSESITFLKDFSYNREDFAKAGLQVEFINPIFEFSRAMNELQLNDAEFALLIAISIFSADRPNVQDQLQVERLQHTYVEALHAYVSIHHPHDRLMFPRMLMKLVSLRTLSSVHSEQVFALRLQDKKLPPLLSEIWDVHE
Test: cell-based GAL4-LXRα luciferase reporter assay
Conditions: 293 cells with GAL4 DNA-binding domain fused to LXRα ligand-binding domain, UAS luciferase reporter; concentration producing 50% of maximal luciferase activity
pEC50: −log10 of the molar value.
PARAMETER_MEASURED: pEC50

Task: Using the record for O=S(=O)(Nc1ccc(C(O)(C(F)(F)F)C(F)(F)F)cc1)c1ccccc1 [Compound 2] , report its pEC50.
Output: > 5.70

Provenance of the data: patent US6316503A
